Entries and their koff values follow.
system-tested: canine IL-31 (Canine_IL31) (canine)
Sequence (chain, as listed by the source limits assumed, form in doubt): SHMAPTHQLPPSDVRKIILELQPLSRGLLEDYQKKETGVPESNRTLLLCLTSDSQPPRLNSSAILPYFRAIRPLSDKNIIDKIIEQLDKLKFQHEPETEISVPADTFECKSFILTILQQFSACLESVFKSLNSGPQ
method: SPR (Biacore), immobilised IL-31, 1:1 fit
measurement-type: koff (s⁻¹)

{"columns": ["binder", "measurement-type", "units-symbol", "measured"],
 "data": [
  ["Feline 15H05 VH2 mouse VL (antibody, V domains shown) VH: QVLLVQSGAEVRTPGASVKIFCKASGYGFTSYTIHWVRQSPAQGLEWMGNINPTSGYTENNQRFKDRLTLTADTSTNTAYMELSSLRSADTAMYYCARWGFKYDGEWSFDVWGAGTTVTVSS VL: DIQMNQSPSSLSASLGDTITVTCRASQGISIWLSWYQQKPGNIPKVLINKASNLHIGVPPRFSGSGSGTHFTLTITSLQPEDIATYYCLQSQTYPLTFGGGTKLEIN", "koff", "s⁻¹", 0.000379],
  ["Feline 15H05 2.2 (antibody, V domains shown) VH: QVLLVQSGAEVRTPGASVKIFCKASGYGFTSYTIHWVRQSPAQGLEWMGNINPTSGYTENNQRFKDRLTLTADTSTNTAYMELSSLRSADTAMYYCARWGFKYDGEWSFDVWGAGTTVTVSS VL: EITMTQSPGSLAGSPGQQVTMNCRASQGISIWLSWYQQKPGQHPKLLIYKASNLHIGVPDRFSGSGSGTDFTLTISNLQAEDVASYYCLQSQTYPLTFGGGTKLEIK", "koff", "s⁻¹", "1.09e-05"],
  ["Feline 15H05 1.1 FW2 (antibody, V domains shown) VH: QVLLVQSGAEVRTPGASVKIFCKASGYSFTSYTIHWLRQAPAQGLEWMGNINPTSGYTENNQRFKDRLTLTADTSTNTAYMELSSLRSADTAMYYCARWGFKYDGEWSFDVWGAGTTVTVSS VL: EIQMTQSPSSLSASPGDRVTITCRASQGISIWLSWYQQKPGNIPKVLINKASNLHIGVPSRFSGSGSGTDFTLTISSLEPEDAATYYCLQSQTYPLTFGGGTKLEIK", "koff", "s⁻¹", "1.66e-07"]
]}
